Experiment: Cytotoxicity in HepG2 cells, Resazurin assay
Assay type: cell-based
Details: human, incubated for 4 days, Resazurin viability
quantity_kind: CC50 at 4 days

Some compounds with known CC50 at 4 days results, for comparison:
>  <query_smiles>
Cc1cc(NC(=O)c2cc(S(=O)(=O)NC3(C(F)(F)F)CC3)sc2C)ccc1F

>  <observed>
> 25 µM

$$$$
>  <query_smiles>
Cc1cc(NC(=O)c2cc(S(=O)(=O)NC(C)(C)C)sc2C)cc(F)c1F

>  <observed>
18.1 µM

$$$$
>  <query_smiles>
Cc1sc(S(=O)(=O)NC2(C)COC2)cc1C(=O)Nc1cccc(C(F)(F)F)c1

>  <observed>
> 25 µM

$$$$
>  <query_smiles>
Cc1sc(S(=O)(=O)NC(C)(C)C(F)(F)F)cc1C(=O)Nc1ccc(F)c(C#N)c1

>  <observed>
> 25 µM

$$$$
>  <query_smiles>
Cc1cc(NC(=O)c2cc(S(=O)(=O)N[C@H]3CCOC3)sc2Cl)ccc1F

>  <observed>
> 25 µM

$$$$

Data request, read-out CC50 at 4 days, for Cc1cc(NC(=O)c2cc(S(=O)(=O)N[C@H]3CCOC3)sc2Br)ccc1F
> 25 µM

Cc1sc(S(=O)(=O)NC(C)(C)C)cc1C(=O)Nc1cccc(C(F)(F)F)c1 ?
10.5 µM

What would you report for Cc1sc(S(=O)(=O)N[C@H](C)C(F)(F)F)cc1C(=O)Nc1ccc(F)c(Cl)c1 ?
14.4 µM

###

Below: a set of entries, each annotated with reported CC50 at 4 days.
Test: Cytotoxicity in HepG2 cells, Resazurin assay
Type: cell-based
Conditions: human, incubated for 4 days, Resazurin viability
Unit µM implied. Number only.

Sample records with CC50 at 4 days:
>  <query_smiles>
Cc1sc(S(=O)(=O)NC(C)(C)C(F)(F)F)cc1C(=O)Nc1cccc(C(F)(F)F)c1

>  <uom>
µM

>  <CC50 at 4 days>
16.9

$$$$
>  <query_smiles>
Cc1sc(S(=O)(=O)NC2(C)COC2)cc1C(=O)Nc1ccc(F)c(Br)c1

>  <uom>
µM

>  <CC50 at 4 days>
13.2

$$$$
>  <query_smiles>
Cc1sc(S(=O)(=O)NC(C)(C)C)cc1C(=O)Nc1cc(F)c(F)c(Cl)c1

>  <uom>
µM

>  <CC50 at 4 days>
15.9

$$$$
>  <query_smiles>
Cc1sc(S(=O)(=O)N[C@H](C)C(F)(F)F)cc1C(=O)Nc1ccc(F)c(Br)c1

>  <uom>
µM

>  <CC50 at 4 days>
7.73

$$$$

Could you share which CC50 at 4 days value was measured for CC[C@@H](C)NS(=O)(=O)c1cc(C(=O)Nc2ccc(F)c(F)c2)c(C)s1 ?
14.6

Can you handle Cc1sc(S(=O)(=O)N[C@@H](C)C(F)(F)F)cc1C(=O)Nc1cc(F)c(F)c(Cl)c1 next?
8.2

###

Tested on: HBV
Assay: Anti-HBV activity, HepG2.117 cell line (Tet-off), intracellular HBV DNA by realtime PCR
Assay type: cell-based, Hepatitis B virus
Conditions: Hepatitis B virus, HepG2.117, 72 h, HepG2.117 cells, 3 days of treatment
Below, each entry is listed with its recorded EC50.
Respond with the figure and its unit, in that order.

Record excerpt, results attached:
>  <query_smiles>
Cc1sc(S(=O)(=O)NC(C)(C)C(F)(F)F)cc1C(=O)Nc1ccc(F)c(C#N)c1

>  <EC50>
420 nM

$$$$
>  <query_smiles>
Cc1sc(S(=O)(=O)N[C@H](C)C(C)(F)F)cc1C(=O)Nc1ccc(F)c(F)c1

>  <EC50>
90 nM

$$$$
>  <query_smiles>
Cc1sc(S(=O)(=O)NC2(C)COC2)cc1C(=O)Nc1ccc(F)c(Br)c1

>  <EC50>
120 nM

$$$$
>  <query_smiles>
Cc1sc(S(=O)(=O)N[C@@H](C)C(C)(F)F)cc1C(=O)Nc1ccc(F)c(F)c1

>  <EC50>
340 nM

$$$$
>  <query_smiles>
Cc1cc(NC(=O)c2cc(S(=O)(=O)NC3(C)COC3)sc2C)cc(C#N)c1F

>  <EC50>
450 nM

$$$$

// next item, EC50 requested
For Cc1sc(S(=O)(=O)N[C@H](C)C(F)(F)F)cc1C(=O)Nc1ccc(F)c(F)c1 , what is its reported EC50?
70 nM
